Cited source for all entries: PubChem BioAssay AID504832

# ASSAY NAME: Primary qHTS for delayed death inhibitors of the malarial parasite plastid, 48 hour incubation; note: potency is the fitted concentration of half-maximal effect
# RUN CONDITIONS: P. falciparum luciferase growth in erythrocytes; series mostly up to 28.7 µM
About 18,000 (5.8%) of roughly 310,000 compounds were called active. Inconclusive results (about 22%) are left out. The sample as a whole holds a higher share of actives than the screen did.
PARAMETER MEASURED: Potency

O=C(c1cc(-c2ccco2)nc2ccccc12)N(Cc1nnc(-c2ccc(Cl)cc2)o1)C1CC1 :: 4.15 µM (active)
CC1(C)C(C=C(Cl)Cl)C1C(=O)NC(O)C(=O)c1ccccc1 (configuration not stated) :: inactive
C=C(C)COc1ccc(-c2n[nH]c(C)c2-c2ccccc2OC)c(O)c1 :: 8.28 µM (active)
Cc1nnc(SCC(=O)N2CCc3ccccc3C2)s1 :: inactive
COc1ccc(NC(=O)CCS(=O)(=O)c2cc3c(cc2Cl)NC(=O)CO3)cc1OC :: inactive
Cc1cccc2sc(N(CCCN(C)C)C(=O)CCS(=O)(=O)c3ccccc3)nc12 :: inactive
Cc1ccc2nnn(Cc3cccc(C(C)(C)C)c3O)c2c1 :: 11.7 µM (active)
Cc1ccc(C(=O)CSc2nnc(Cn3nnc4ccccc43)n2C)cc1 :: inactive
CC(C)(C)C(=O)Nc1ccc(-c2cn3cccnc3n2)cc1 :: inactive
COc1ccc(CNC(=O)CN(C(=O)c2csnn2)c2cnc3ccccc3c2)cc1 :: inactive

Query: Name the recorded Potency for O=C(c1ccc(Cl)s1)N(Cc1nnc(-c2ccccc2Cl)o1)C1CC1 .
Response: inactive

Query: Potency lookup needed for C/C=N/N(c1ccccc1)c1ccccc1 , thanks.
Response: 10.4 µM (active)

Query: Dear colleague, I am looking for the recorded Potency of the following compound: COC(=O)c1ccc(C)c(NC(=O)C2CC(=O)N(C3CCCC(C)C3C)C2)c1 (configuration not stated)
Response: inactive

Query: Please look up its Potency: COc1ccc(C2/C(=C(/O)c3ccc4c(c3)CC(C)O4)C(=O)C(=O)N2Cc2ccncc2)cc1 (configuration not stated)
Response: inactive

Query: Could you tell me which Potency is on file for COCC(C)OC(=O)c1c(N)n(CCCN2CCOCC2)c2nc3ccccc3nc12 (configuration not stated) ?
Response: inactive

Query: Tell me the measured Potency of COc1cccc(-n2c(N)cc(=O)nc2SCC(=O)Nc2cc(C)on2)c1 , please.
Response: inactive

Query: Which Potency is reported for this compound? Cc1nn(-c2ccccc2)c(C)c1NC(=O)CCl
Response: 4.65 µM (active)

Query: Would you kindly share the measured Potency for COc1cccc2sc(N(CCCN(C)C)C(=O)C(c3ccccc3)c3ccccc3)nc12 ?
Response: 13.1 µM (active)

Query: What value of measured Potency is listed for COC(=O)c1ccc(C(=O)NC2CC(C)(C)Cc3c2cnn3-c2ccc(F)cc2)nc1 (configuration not stated) ?
Response: inactive

Query: Need Potency, item Cc1nc2sccn2c(=O)c1S(=O)(=O)NCCc1ccccc1
Response: inactive

Query: Value lookup for Potency; key = COc1cccc2sc(N(CCCN(C)C)C(=O)CCS(=O)(=O)c3ccccc3)nc12
Response: inactive

Query: Item Cc1nnc(SCC(=O)NCc2ccccc2)s1 has what recorded Potency?
Response: inactive

====

# ASSAY NAME: Primary qHTS for delayed death inhibitors of the malarial parasite plastid, 48 hour incubation
# RUN CONDITIONS: P. falciparum luciferase growth in erythrocytes; series mostly up to 28.7 µM
# Description: The goal of this screen is to discover new antimalarial compounds that act by inhibiting the development of the apicoplast in the malarial parasite Plasmodium falciparum. […] We have developed a cell-based assay that measures parasite growth based on the expression of an integrated copy of a firefly luciferase reporter. […] Growth inhibition is detected by a decrease in luciferase activity. […]
The campaign covered roughly 310,000 compounds. About 18,000 (5.8%) were called active. Another 22% or so got no clear call; they are omitted. The call rests on the fitted dose curve; in most records, active means well fitted inhibition curve with a large enough effect; inconclusive means small, poorly fitted or top-dose-only effect, or another doubt; inactive means no such curve, though single readings can be large or run the other way. For the sample, actives were picked, then their nearest neighbours and some compounds at random.
The categories you may choose from are true (active), false (inactive)

O=C(Nc1c2c(nc3ccccc13)CCCC2)c1ccccc1Br :: false
COc1ccc(CC(=O)Nc2nc(-c3ccc(F)c(F)c3)cs2)cc1OC :: false
Cc1noc(C)c1COC(=O)c1cc2ccccc2cc1O :: false
Cc1ccc(S(=O)(=O)N2CCOCC2)cc1C(=O)NC(=S)N(Cc1ccccc1)C(C)C :: false

Now take the following compound into account.
Query: What call does the record list for Cc1cccc(N(Cc2ccccc2)C(=O)c2cc(S(=O)(=O)N3CCOCC3)ccc2F)c1 ?
Response: true

====

# ASSAY NAME: Primary qHTS for delayed death inhibitors of the malarial parasite plastid, 48 hour incubation
# RUN CONDITIONS: P. falciparum luciferase growth in erythrocytes; series mostly up to 28.7 µM
About 18,000 (5.8%) of roughly 310,000 compounds were called active. About 22% were inconclusive and are not listed. Calls come from the whole dose curve; as a rule, active = well fitted inhibition curve with a large enough effect; inconclusive = small, poorly fitted or top-dose-only effect, or another doubt; inactive = no such curve, though single readings can be large or run the other way. This is one part of a sample in which actives are shown more often than they occur.
Tick one outcome: 1.0 (active), 0.0 (inactive)

N#C/C(=C(/O)Cc1cccc2ccccc12)c1nc2ccccc2s1 :: 0.0

Query: Hey, what did the test say about O=C(Nc1cccc(F)c1)NC1CCCc2ccccc21 (configuration not stated) ?
Response: 0.0

Query: Kindly provide the recorded test outcome for the following compound: CCN(c1ccccc1)S(=O)(=O)c1cccc(C(=O)O)c1
Response: 0.0

Query: # fetch the recorded call for COc1cccc(NC(=O)CN2CCN(CC(=O)Nc3ccccc3Cl)CC2)c1 here
Response: 0.0

Query: Just curious, what result did COC(=O)c1ccc(CSc2nnc(N)s2)o1 get here?
Response: 0.0

Query: Per the records of this test, what outcome belongs to O=C(NCc1ccccc1Cl)C1CCN(S(=O)(=O)c2cccc3nonc23)CC1 ?
Response: 0.0

Query: I would be grateful if you could indicate the recorded call for COc1ccccc1C(CNC(=O)c1cccc(S(=O)(=O)Nc2ccc(F)cc2)c1)N(C)C (configuration not stated) .
Response: 1.0

Query: Write down the call the test reported for this compound. Item: Cc1ccc(/C=N/NC(=O)c2cc3ccccc3cc2O)o1
Response: 1.0

Query: Tell me the assay call for COC(=O)c1ccc(CSc2ccccc2C)o1 please.
Response: 0.0

Query: Test call, this compound: COC(=O)c1ccc(CSc2ccc3nnc(-c4ccccc4)n3n2)o1
Response: 1.0

Query: Called result for Cc1ccc(C)c(N2CCN(C(=O)Cn3ncn4cccc4c3=O)CC2)c1
Response: 0.0

Query: Check the results log: what was the call for CCC(=O)N1CCCc2ccccc21 ?
Response: 0.0

====

# ASSAY NAME: Primary qHTS for delayed death inhibitors of the malarial parasite plastid, 48 hour incubation; note: potency is the fitted concentration of half-maximal effect
# RUN CONDITIONS: P. falciparum luciferase growth in erythrocytes; series mostly up to 28.7 µM
Out of some 310,000 compounds screened, about 18,000 (5.8%) were called active. Not shown: some 22% with an inconclusive outcome. For the sample, actives were picked, then their nearest neighbours and some compounds at random.
PARAMETER MEASURED: Potency

Recorded Potency, per entry:
CN(C)/C=C/C(=O)c1ccccc1F :: inactive
CC(C)N(Cc1ccccc1)C(=O)COC(=O)c1ccccc1SCC(=O)N1CCCC1 :: inactive
COc1cccc(N2CC(C(=O)Nc3c(C)cccc3C)CC2=O)c1 (stereo not given) :: inactive
CC(=O)Oc1ccccc1C1=NN(C(C)=O)C(c2ccccc2)C1 (stereo not given) :: inactive
Cc1ccnc(NS(=O)(=O)c2ccc(NC(=O)c3oc4ccc(F)cc4c3C)cc2)n1 :: inactive
COCCCn1c(SCC(=O)NC2CCCC2)nnc1-c1ccccc1 :: inactive
COCCCn1c(Cc2csc(Nc3cccc(Cl)c3)n2)nnc1SCC(=O)OC1CCCCC1 :: 8.28 µM (active)
COc1cc(C(=S)N2CCOCC2)ccc1O :: inactive
O=C(CSc1nnc(-c2ccco2)n1Cc1ccccc1)NC(=O)NCc1ccco1 :: 10.4 µM (active)
O=C(COC(=O)c1ncc(Cl)c(Cl)c1Cl)NCc1ccccc1 :: inactive

Query: Sample Cc1cc(NC(=O)COC(=O)c2ccc(F)c(S(=O)(=O)N3CCOCC3)c2)no1 — what was its Potency?
Response: inactive

Query: I'd like to know its Potency. The molecule in question is O=C(c1ccccc1)N1N=C(c2ccccc2O)CC1c1ccc(Br)cc1 (stereo not given)
Response: 3.7 µM (active)

====

# ASSAY NAME: Primary qHTS for delayed death inhibitors of the malarial parasite plastid, 48 hour incubation
# RUN CONDITIONS: P. falciparum luciferase growth in erythrocytes; series mostly up to 28.7 µM
The campaign covered roughly 310,000 compounds. About 18,000 (5.8%) were called active. About 22% were inconclusive and are not listed. Calls come from the whole dose curve; as a rule, active = well fitted inhibition curve with a large enough effect; inconclusive = small, poorly fitted or top-dose-only effect, or another doubt; inactive = no such curve, though single readings can be large or run the other way. The sample as a whole holds a higher share of actives than the screen did.
In this exercise, the only acceptable responses are label 1 for active, label 0 for inactive

CCC(C)(C)c1ccc(OCC(=O)N(C)C)c(C(C)(C)CC)c1 :: label 1

Query: GET /call?item= COc1cccc(C(C(=O)NC2CCCC2)N(C(=O)c2ccco2)c2cccc(C(C)=O)c2)c1OC (stereo not given) returns the recorded outcome of this test.
Response: label 1

Query: Identify the outcome logged in this assay for the compound shown: Nc1nonc1-n1nnc(C(=O)N/N=C/C2CCCCC2)c1-c1ccccc1
Response: label 0
